// reported melting point per item

See these solved cases before continuing.
1. Cc1cccc2cc(C(C)C)c(Oc3cnc(N)nc3N)cc12 [Compound 1] :: 148 °C
2. CC(C)c1cc2ncccc2cc1Oc1cnc(N)nc1N :: 206.9 to 208.2 °C
3. CC(C)c1cc2cccnc2cc1Oc1cnc(N)nc1N [Compound 9] :: 276.3 to 278 °C
4. COc1ccc2cc(Oc3cnc(N)nc3N)c(C(C)C)cc2c1 [Compound 4] :: 170 to 172 °C

Field: next molecule
*Q* Please give the documented melting point of CC(C)c1cc2ncccc2cc1Oc1cnc(NC(CO)CO)nc1N [Compound 11]
*A* 171.9 to 174.4 °C

Values were extracted from patent US7776872B2.
